Parameter: ED50. Scope: all listed entries.
tested on: ANKA strain of Plasmodium berghei; assay: Single dose ED50/ED90/ED99 determination in infected mice; type: in vivo; details: single dose po in SSV on day 1 post-infection; parasitemia day 3; nonlinear fitting
EXPERIMENTAL_ENDPOINT: ED50 (mg/kg)

compound="c1ncn(C[C@H]2CC[C@]3(CC2)OOC2(O3)C3CC4CC(C3)CC2C4)n1 (stereo partly shown)" experimental_endpoint=ED50 experimental_result=4.0
compound="OC(c1cc(C(F)(F)F)nc2c(C(F)(F)F)cccc12)C1CCCCN1 (stereo not shown) [MFQ, mefloquine, reference compound]" experimental_endpoint=ED50 experimental_result=4.0
compound="C[C@H]1[C@@H](OCc2ccc(C(=O)O)cc2)O[C@@H]2O[C@@]3(C)CC[C@H]4[C@H](C)CC[C@@H]1[C@@]24OO3 [Artelinate, artelinate, reference compound]" experimental_endpoint=ED50 experimental_result=4.8
compound="C[C@H]1[C@H](OC(=O)CCC(=O)O)O[C@@H]2O[C@@]3(C)CC[C@H]4[C@H](C)CC[C@@H]1[C@@]24OO3 [AS, artesunate, reference compound]" experimental_endpoint=ED50 experimental_result=4.7
